Experiment: NCI Yeast Anticancer Drug Screen. Data for the cln2 rad14 strain (AID 165);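 further: 0% = growth equal to vehicle treated cultures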
Conditions: S. cerevisiae cln2 rad14 strain, at 50.0 µM (retest, dose inferred, filed as 5.0)
This is part of a sample that, as a whole, favours compounds with a hit. Of some 79,000 tested, about 15% had one in any assay. Activity calls are given as the source filed them. No stated cut-off is given here; in the data, active means growth inhibition above about 70%; inactive means the rest.
Outcome (select one): TRUE (active), FALSE (inactive)

[
  {
    "molecule": "CC(C)C[NH-].CC(C)C[NH-].[Cl][Pt+2]([Cl])([Cl])[Cl]",
    "class_assignment": "TRUE"
  },
  {
    "molecule": "CCCCCCN(CCCCCC)CCC(=O)c1ccc2cc(Cl)c3ccccc3c2c1",
    "class_assignment": "TRUE"
  },
  {
    "molecule": "Cc1cccc2c(CC(=O)O)c[nH]c12",
    "class_assignment": "TRUE"
  },
  {
    "molecule": "OCCCCCCCCCl",
    "class_assignment": "FALSE"
  },
  {
    "molecule": "COc1cccc2c1C(=O)c1c(O)c3c(c(O)c1C2=O)C[C@@](O)(/C(C)=N/NC(=O)c1ccc(Cl)c(Cl)c1)C[C@@H]3OC1CC(N)C(O)C(C)O1 (stereo partly specified)",
    "class_assignment": "TRUE"
  }
]

Now for a further molecule.
Query: // param item: Cc1cc(Oc2nc(Cl)nc(C(Cl)(Cl)Cl)c2Cl)cc(C)c1N(C)C (tested in a mixture with another compound) ; yields the recorded call
Result: FALSE

====

Below is a list of entries, each paired with its recorded growth inhibition value.
Assay: NCI Yeast Anticancer Drug Screen. Data for the sgs1 mgt1 strain (AID 161);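 further: 0% = growth of cultures given vehicle only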
Details: S. cerevisiae sgs1 mgt1 strain, at 5.0 µM (retest, dose inferred, filed as 0.5), hits give high values
This is part of a sample that, as a whole, favours compounds with a hit. Of some 79,000 tested, about 15% had one in any assay. Active and inactive are the calls of the source. No stated cut-off is given here; in the data, active means growth inhibition above about 70%; inactive means the rest.

Recorded growth inhibition, per entry:
[
  {
    "compound": "Oc1ccc(C2SC(c3ccc(O)cc3)SC(c3ccc(O)cc3)S2)cc1 (stereo not given)",
    "growth inhibition": "-23% (inactive)"
  },
  {
    "compound": "COC(=O)c1c2c(cc3c1CC1(Cc4cc5c(c(C)c4C1)CCC5)C3)CCC2 (stereo not given)",
    "growth inhibition": "9% (inactive)"
  },
  {
    "compound": "COC(=O)C1C(C(=O)OC)C2(OC(c3ccc(Cl)cc3)=CC2=O)C12OC(c1ccc(Cl)cc1)=CC2=O (stereo not given)",
    "growth inhibition": "12% (inactive)"
  },
  {
    "compound": "CCOC(=O)C1CN(CCCCCCN2CC(C(=O)OCC)C(=O)C2=O)C(=O)C1=O (stereo not given)",
    "growth inhibition": "-21% (inactive)"
  },
  {
    "compound": "Nc1nc(-c2cc3cc(Cl)ccc3o2)cs1",
    "growth inhibition": "39% (inactive)"
  },
  {
    "compound": "O=S(=O)(Nc1ccccn1)c1ccc(NCc2c3ccccc3nc3cc(Cl)ccc23)cc1",
    "growth inhibition": "-2% (inactive)"
  },
  {
    "compound": "OC(CCN1CCOCC1)c1ccc(Sc2ccccc2)cc1 (stereo not given)",
    "growth inhibition": "61% (inactive)"
  },
  {
    "compound": "CCCCCC/C=C\\C=O",
    "growth inhibition": "3% (inactive)"
  }
]

Query: Requested field: growth inhibition. Item: N#Cc1cccc2c1Sc1ccccc1N2
Result: 1% (inactive)

Query: Fill in the blank: the reported growth inhibition of Cc1cc(C)nc(NS(=O)(=O)c2ccc(NC(=O)c3cccnc3Nc3cccc(Cl)c3)cc2)n1 is ____.
Result: 6% (inactive)

Query: Would you mind telling me what growth inhibition value was observed for Cc1cc[n+](C2CCC3(C)C(=CCC4C3CCC3(C)C(C(C)CCCC(C)C)CCC43)C2)cc1 (stereo not given) ?
Result: 69% (inactive)

Query: Which value of growth inhibition has been reported for Cc1ccc(S(=O)(=O)CC(=O)CC(=O)C(=O)Nc2cc(C)ccc2C)cc1 in the records?
Result: -2% (inactive)

Query: // returns reported growth inhibition for input CCC1C(c2ccccc2O)c2cc3c(cc2OC1N1CCOCC1)OCO3 (stereo not given)
Result: -42% (inactive)

====

Assay: NCI Yeast Anticancer Drug Screen. Data for the sgs1 mgt1 strain (AID 161);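 further: 0% = growth of cultures given vehicle only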
Details: S. cerevisiae sgs1 mgt1 strain, at 50.0 µM, hits give high values
About 79,000 compounds went through this panel and 15% of them were active in at least one assay; those are over-represented in the sample as a whole.
measurement_label: growth inhibition (%)
# number only, unit % dropped from output

Solved entries:
[
  {
    "molecule": "COC(=O)C(CBr)CBr",
    "measurement_units": "%",
    "readout_value": -5.25
  },
  {
    "molecule": "O=C(N/N=C/c1ccccc1O)C1Cc2ccccc2C1C(Cl)Cl (stereo not drawn)",
    "measurement_units": "%",
    "readout_value": 93
  },
  {
    "molecule": "CCCCCCCCCCCCCCC(O)C(=O)O (stereo not drawn)",
    "measurement_units": "%",
    "readout_value": 33
  },
  {
    "molecule": "O=[N+]([O-])CC(O)c1ccccc1Cl (stereo not drawn)",
    "measurement_units": "%",
    "readout_value": 99.5
  },
  {
    "molecule": "CCCCCCCCCCCCCCCc1nc(SCC(=O)O)n[nH]1",
    "measurement_units": "%",
    "readout_value": 74.2
  }
]

Query: Looking for the measured growth inhibition of CCC(=O)OC1CCC(C2CCCCC2)CC1 (stereo not drawn) , can you help?
Result: 16.7

Query: Which value of growth inhibition has been reported for OCC1OC(NC(=S)NCSCCC(F)(F)C(F)(F)C(F)(F)C(F)(F)C(F)(F)C(F)(F)F)C(O)C(O)C1O (stereo not drawn) in the records?
Result: 93.6

Query: growth inhibition lookup needed for CCO[Si](CC)(OCC)OCC , thanks.
Result: -12.2

Query: If you can, please state the reported growth inhibition value of Cc1ccc(S(=O)(=O)c2cc(O)c(O)c3ccc(Br)cc23)cc1 .
Result: 92.9

Query: // growth inhibition lookup, key: Cn1c(=S)c2[nH]c(=S)[nH]c2n(C)c1=O
Result: 96.7

Query: Any idea what its growth inhibition is? The molecule is CN(C)c1ccc2c(c1)N(C)c1ccccc1C2(Cl)c1ccccc1 (stereo not drawn)
Result: 99.3

Query: Please report the recorded growth inhibition for O=C(O)c1ccccc1/C=N/O .
Result: 3

Query: Item CCCCC(CC)CCC(C)OC(=O)C(O)c1ccccc1 (stereo not drawn) has what recorded growth inhibition?
Result: 83

Query: # get_value(readout='growth inhibition', item= CCC(CO)Nc1nc2cc(Cl)ccc2c2ccc(Cl)cc12 (stereo not drawn) )
Result: 95.6

Query: Tell me the measured growth inhibition of CCOC(=O)C(CC)(CCc1ccccc1[N+](=O)[O-])C(=O)OCC , please.
Result: 39.2

Query: Quick one: growth inhibition of COc1cc(C2c3cc4c(cc3OC3(O)C=C(C)OC(=O)C23)OCO4)cc(OC)c1OC (stereo not drawn) ?
Result: 13.4

Query: Dear colleague, I am looking for the recorded growth inhibition of the following molecule: C=CC1(C)CCC2C(=CCC3C2(C)CC(O)C(O)C3(C)COC2OC(CO)C(O)C(O)C2O)C1 (stereo not drawn)
Result: 94.1

Query: Requested read-out: growth inhibition. Entry: Cc1ccc(CC2(C(=O)O)Cc3ccc(C)cc3C2)cc1 (stereo not drawn)
Result: 89.3

====

Experiment: NCI Yeast Anticancer Drug Screen. Data for the mlh1 rad18 strain (AID 175)
Conditions: S. cerevisiae mlh1 rad18 strain growth inhibition; at 5.0 µM (retest, dose inferred, filed as 0.5); hits give high values
About 79,000 compounds went through this panel and 15% of them were active in at least one assay; those are over-represented in the sample as a whole.
growth inhibition for assorted compounds
Write it as a number; the unit % goes unstated.

// below: answered compounds
[
  {
    "compound": "CCC(CO)Nc1nc2ccc(Br)cc2c2ccccc12 (stereo unspecified)",
    "measurement_units": "%",
    "growth inhibition": 8
  },
  {
    "compound": "CCCC(=O)OCc1cc(=O)n(C)c2c3c4c(cc12)c(C)cc(=O)n4CO3",
    "measurement_units": "%",
    "growth inhibition": 83
  },
  {
    "compound": "O=C(SCCCc1ccccc1)c1cc([N+](=O)[O-])cc([N+](=O)[O-])c1",
    "measurement_units": "%",
    "growth inhibition": 98
  },
  {
    "compound": "Oc1ccc2c(ccc3ccccc32)c1",
    "measurement_units": "%",
    "growth inhibition": -1
  },
  {
    "compound": "CNC(=O)OCC1=CC(=O)C(OC)=C(OC)C1=O",
    "measurement_units": "%",
    "growth inhibition": -8
  }
]

Query: Request the reported growth inhibition associated with O=C1c2cccc3cc([N+](=O)[O-])cc(c23)C(=O)N1O
Result: 31

Query: State the recorded growth inhibition for this entry: CCCCCCCCCCCC(=O)OCCCCC
Result: -8

Query: I have this compound here, CCOc1c(N=Nc2ccc(Cl)cc2)c(-c2ccccc2)nn1C(N)=S , and I need its recorded growth inhibition.
Result: 0

Query: # growth inhibition lookup, item CCc1c(C)[nH]c2c([N+](=O)[O-])cccc12
Result: 1

Query: Reported growth inhibition for CC12CCC(=O)C=C1CCC1C2CCC2(C)C(c3cnc[nH]3)CCC12 (stereo unspecified) : what is it?
Result: 41

Query: Look up growth inhibition: CCNC(=S)N/N=C/c1ccccn1
Result: -33

Query: Sample C/C=C(/CCC1NCCC2c3ccccc3NC12)[Si](C)(C)C (stereo unspecified) — what was its growth inhibition?
Result: -4

Query: Return reported growth inhibition; argument: CCCC/C=C1/CCC(CN(C)C)C1=O (stereo unspecified)
Result: 19

Query: Look up growth inhibition: Cc1cc(N=Nc2ccncc2C)ccc1N
Result: -72

Query: So what does the record say about growth inhibition for CCC(C)n1c(C)nc2c(N)cc(C(F)(F)F)cc21 (stereo unspecified) ?
Result: 0

Query: Sample O=C(c1ccc(Br)cc1)C1OC12C(=O)Nc1ccccc12 (stereo unspecified) — what was its growth inhibition?
Result: 99
